I'd appreciate it if you could supply protein stability index values for the items below.
B1: TRIM55 (parent)
chain: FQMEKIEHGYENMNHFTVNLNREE

variants of: B1; experiment: protein stability index of a GFP-peptide fusion (GPS, HEK-293T) (PSI 1-6); higher = more stable; details: c terminus: a fixed tail appended;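 note: lentivirally expressed fusions sorted by FACS into six bins by GFP to DsRed ratio, PSI derived from sequencing read proportions per bin multiplied by bin number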
// no unit, no text: just the number

Find the recorded protein stability index belonging to `H15Q` and report it.
3.57

`Y10I` ?
3.14

Same question for `G9S` please.
3.21

Next record, please: `F1K`
4.17

What about `N12V` ?
2.04

Please answer likewise for `I6Q`
3.32

Query `N19T` next
2.27

Now consider `T17Q` and answer again.
3.75

Queued: `G9A`
3.63

Next variant up: `M3Y`
3.06

Repeat for the following variant: `E11V`
1.97

Now this one: `Y10S`
3.44

Thanks! And `H8G` ?
2.37

Ok, now `N14F`
2.53

Next up: `N12S`
2.3

# iterate: `L20E`
3.53

Same thing, different variant: `K5T`
3.08

Another variant to look at: `Q2E`
4.49

Next variant up: `N12T`
2.76

Input `K5D`
4.14

Okay, and `M3P` ?
2.91

# iterate: `H8P`
2.77
